Target: T1, TIAM2, Q8IVF5
T1 sequence (Q8IVF5 885-986, limits assumed, looked up): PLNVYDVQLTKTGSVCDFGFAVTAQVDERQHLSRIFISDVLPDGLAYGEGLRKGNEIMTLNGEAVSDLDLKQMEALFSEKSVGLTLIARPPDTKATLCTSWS
Assay: holdup assay
Set-up: key: below the threshold = too weak to quantify, mostly under pKd 3.1 to 4
Conditions: plain residues with an end cap or a label only (N-terminal biotin on a linker: ado-ado)

{"Binder": "NVYGIESVKI [GRIA2, P42262]", "pKd": 4.21}
{"Binder": "NTLNRKTTPV [CACNG8, Q8WXS5]", "pKd": "below the threshold"}
{"Binder": "NTANRRTTPV [CACNG2, Q9Y698]", "pKd": "below the threshold"}
{"Binder": "MHIQEKGFHV [EPHA6, Q9UF33]", "pKd": "below the threshold"}
